Target: recombinant active human PAI-1 (Homo sapiens, UniProt P05121)
Sequence (P05121 24-402): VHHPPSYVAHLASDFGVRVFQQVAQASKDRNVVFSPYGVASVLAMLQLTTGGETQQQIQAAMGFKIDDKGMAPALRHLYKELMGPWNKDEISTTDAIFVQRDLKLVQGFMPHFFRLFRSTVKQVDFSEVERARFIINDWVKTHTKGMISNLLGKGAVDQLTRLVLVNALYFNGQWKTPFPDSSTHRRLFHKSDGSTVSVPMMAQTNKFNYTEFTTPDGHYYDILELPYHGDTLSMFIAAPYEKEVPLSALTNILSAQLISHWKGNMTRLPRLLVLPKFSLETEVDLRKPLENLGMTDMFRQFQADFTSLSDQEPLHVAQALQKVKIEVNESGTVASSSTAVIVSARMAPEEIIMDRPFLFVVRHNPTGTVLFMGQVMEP
Assay: PAI-1 inhibitory activity against uPA (fluorogenic uPA substrate)
Format: biochemical
Conditions: in buffer alone; read-out: IC50 for inhibiting the activity of PAI-1 against uPA
quantity_kind: IC50 (µM)

NNC(=O)C(=O)NCc1cccc(OC(F)(F)F)c1 :: 140

###

Biological target: recombinant active human PAI-1 (Homo sapiens)
Experiment: PAI-1 inhibitory activity against uPA (fluorogenic uPA substrate)
Type: biochemical
Conditions: buffer containing 10% human PAI-1-depleted plasma; read-out: IC50 for inhibiting the activity of PAI-1 against uPA
pIC50: −log10 of the molar value.
quantity_kind: pIC50

NNC(=O)C(=O)NCc1cccc(OC(F)(F)F)c1 :: 4.17
